# system: Full-length human PRMT8 (Homo sapiens, UniProt Q9NR22)
# Construct: Full-length human PRMT8 (NM_019854.4) isoform 1 transcript clone
# Sequence (Q9NR22 whole entry, canonical isoform): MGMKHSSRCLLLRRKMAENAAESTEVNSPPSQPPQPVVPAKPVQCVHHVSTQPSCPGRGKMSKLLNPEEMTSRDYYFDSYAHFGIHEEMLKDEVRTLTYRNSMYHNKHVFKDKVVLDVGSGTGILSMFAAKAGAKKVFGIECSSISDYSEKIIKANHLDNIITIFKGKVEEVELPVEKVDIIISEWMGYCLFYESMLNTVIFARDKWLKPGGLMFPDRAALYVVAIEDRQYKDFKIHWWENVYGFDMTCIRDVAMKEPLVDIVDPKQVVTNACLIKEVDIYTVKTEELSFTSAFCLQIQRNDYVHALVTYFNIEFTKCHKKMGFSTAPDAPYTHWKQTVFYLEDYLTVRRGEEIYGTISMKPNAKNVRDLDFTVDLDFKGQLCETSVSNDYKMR
# experimental protocol: PRMT8 biochemical assay (3H-SAM Flashplate, peptide substrate)
# Text: General Materials. […] General Procedure for PRMT8 Enzyme Assays on Peptide Substrates. […] The plates were then read in a PerkinElmer TopCount plate reader to measure the quantity of ^3H-labeled peptide bound to the Flashplate surface, measured as disintegrations per minute (dpm) or alternatively, referred to as counts per minute (cpm). […]
metric name: IC50

compound: CN(CCN)Cc1c[nH]nc1-c1cc(F)ccc1Cl [Compound 106]
IC50: 3.01 to 10 µM

compound: CN(CCN)Cc1n[nH]cc1-c1ccc(C#N)cc1 [Compound 100]
IC50: 0.101 to 1 µM

compound: Cc1cc(-c2n[nH]cc2CN(C)CCN)cc(C)c1OC(C)C [Compound 199]
IC50: 0.101 to 1 µM

compound: CC(C)N(CCN)Cc1c[nH]nc1-c1ccc(F)cc1 [Compound 75]
IC50: 1.01 to 3 µM

compound: CN(CCN)Cc1c[nH]nc1-c1ccc(Oc2ccccc2)c(F)c1 [Compound 224]
IC50: 0.101 to 1 µM

Inquiry: Recall and state the measured IC50 for COCCn1cc(CN(C)CCN)c(-c2ccc(F)cc2)n1 [Compound 5] .
Reply text: 3.01 to 10 µM

Inquiry: Recall and state the measured IC50 for CN(CCN)Cc1c[nH]nc1-c1ccc(C(F)(F)F)cc1Cl [Compound 135] .
Reply text: 1.01 to 3 µM

Inquiry: Recall and state the measured IC50 for CNCCN(C)Cc1c[nH]nc1-c1ccccc1Oc1ccccc1 [Compound 36] .
Reply text: > 10 µM

Inquiry: Recall and state the measured IC50 for CN(CCN)Cc1c[nH]nc1-c1ccc(C2CC2)cc1 [Compound 116] .
Reply text: 0.101 to 1 µM

Inquiry: Recall and state the measured IC50 for CC(O)c1ccc(-c2n[nH]cc2CN(C)CCN)cc1 (stereo not shown) [Compound 115] .
Reply text: 1.01 to 3 µM
